assay: physchem; conditions: pH 6.5, aqueous buffer
Bridge positions count the residues as written; N and C are the ends. Square brackets hold non-standard residues; d marks the D form. Peptide text beside a SMILES is read from it. * marks the point of attachment. hPhe(3-Cl-4-CF3) = N[C@@H](CCc1ccc(C(F)(F)F)c(Cl)c1)C(=O)O; NMePhe(4-Me) = CN[C@@H](Cc1ccc(C)cc1)C(=O)O; NMeI = CC[C@H](C)[C@H](NC)C(=O)O; NMeD = CN[C@@H](CC(=O)O)C(=O)O; NMeL = CN[C@@H](CC(C)C)C(=O)O; NMeA = CN[C@@H](C)C(=O)O; Pyrrolidide = C1CCN(*)C1; Ac5c = NC1(C(=O)O)CCCC1; Aze = O=C(O)[C@@H]1CCN1; Sar = CNCC(=O)O

compound	solubility thermodynamic
CC[C@H](C)[C@@H]1NC(=O)[C@H](CC(C)C)N(C)C(=O)C[C@@H](C(=O)N2CCCC2)N(C)C(=O)[C@H]([C@@H](C)CC)N(C)C(=O)C2(CCCC2)NC(=O)[C@@H]2CCCN2C(=O)[C@H](CCc2ccc(C(F)(F)F)c(Cl)c2)NC(=O)CN(C)C(=O)[C@H](Cc2ccc(C)cc2)N(C)C(=O)[C@@H]2CCN2C(=O)[C@H](C)N(C)C1=O [Compound III] ([NMeL]I[NMeA][Aze][NMePhe(4-Me)][Sar][hPhe(3-Cl-4-CF3)]P[Ac5c][NMeI][NMeD]-Pyrrolidide; lactam N-11)	10 µg/mL
